Task for the reader: assign each of the following compounds its reported IC50.
Just the number please, in nM, no unit attached.

Task item: Lookup: IC50 / Xanthine dehydrogenase/oxidase (Bos taurus) / "CCCCOc1ccc(-c2nc(C)c(C(=O)O)n2O)cc1C#N"
Reply: 3

Task item: Find the measured IC50: item "COn1c(-c2ccc(OCc3ccc(C)cc3)c(C#N)c2)nc(C)c1C(=O)O" , target or system Xanthine dehydrogenase/oxidase (Bos taurus).
Reply: 1100

Task item: Form entry - test system: Xanthine dehydrogenase/oxidase (Bos taurus); read-out: IC50; compound: "CCCCCCOc1ccc(-c2nc(C)c(C(=O)O)n2OC)cc1C#N"
Sequence (P80457 whole entry): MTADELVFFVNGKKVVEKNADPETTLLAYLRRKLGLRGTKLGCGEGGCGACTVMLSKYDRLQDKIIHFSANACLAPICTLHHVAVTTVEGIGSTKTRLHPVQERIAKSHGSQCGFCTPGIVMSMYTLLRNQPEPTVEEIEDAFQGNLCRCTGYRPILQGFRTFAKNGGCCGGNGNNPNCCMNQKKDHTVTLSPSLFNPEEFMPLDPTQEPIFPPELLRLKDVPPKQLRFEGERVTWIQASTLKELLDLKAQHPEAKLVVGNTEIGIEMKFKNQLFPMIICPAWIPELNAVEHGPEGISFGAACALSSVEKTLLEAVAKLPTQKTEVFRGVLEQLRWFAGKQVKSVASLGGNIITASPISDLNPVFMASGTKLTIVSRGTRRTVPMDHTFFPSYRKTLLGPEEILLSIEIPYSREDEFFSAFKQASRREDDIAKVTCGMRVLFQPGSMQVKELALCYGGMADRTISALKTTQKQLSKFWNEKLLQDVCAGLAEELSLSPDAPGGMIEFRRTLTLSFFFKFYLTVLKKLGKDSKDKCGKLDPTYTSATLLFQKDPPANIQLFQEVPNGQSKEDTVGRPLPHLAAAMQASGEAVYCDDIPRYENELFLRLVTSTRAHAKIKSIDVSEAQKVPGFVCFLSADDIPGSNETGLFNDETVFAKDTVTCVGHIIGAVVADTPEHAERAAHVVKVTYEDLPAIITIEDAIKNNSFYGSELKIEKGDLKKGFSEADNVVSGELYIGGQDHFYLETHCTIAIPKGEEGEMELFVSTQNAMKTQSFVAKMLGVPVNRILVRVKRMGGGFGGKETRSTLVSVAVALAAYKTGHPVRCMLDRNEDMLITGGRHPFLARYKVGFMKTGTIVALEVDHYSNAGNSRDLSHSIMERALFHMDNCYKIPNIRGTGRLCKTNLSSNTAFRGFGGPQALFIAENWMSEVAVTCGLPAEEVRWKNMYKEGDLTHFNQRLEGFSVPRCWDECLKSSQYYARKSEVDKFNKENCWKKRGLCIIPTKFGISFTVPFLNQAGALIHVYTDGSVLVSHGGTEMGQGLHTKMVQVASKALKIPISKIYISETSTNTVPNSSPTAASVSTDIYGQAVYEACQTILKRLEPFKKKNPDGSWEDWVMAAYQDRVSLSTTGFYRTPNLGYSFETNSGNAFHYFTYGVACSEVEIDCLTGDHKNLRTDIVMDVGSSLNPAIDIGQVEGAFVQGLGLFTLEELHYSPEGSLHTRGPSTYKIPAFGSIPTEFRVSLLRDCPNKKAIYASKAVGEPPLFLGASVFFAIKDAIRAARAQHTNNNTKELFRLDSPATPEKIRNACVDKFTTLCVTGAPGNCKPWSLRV
Reply: 3900

Task item: Request - read-out IC50 | tested on Xanthine dehydrogenase/oxidase (Bos taurus) | compound "COn1c(-c2ccc(OCCC(C)C)c(C#N)c2)nc(C)c1C(=O)O"
Reply: 8000

Task item: Form: Entry = CCC(C)Oc1ccc(-c2nc(C)c(C(=O)O)n2OC)cc1C#N (stereo not drawn) | System = Xanthine dehydrogenase/oxidase (Bos taurus) | IC50 = ____
Reply: 1500

Task item: Quick check: IC50 on Xanthine dehydrogenase/oxidase (Bos taurus), item "Cc1nc(-c2ccc(OCCC(C)C)c(C#N)c2)n(O)c1C(=O)O" ?
Reply: 30

Task item: Give IC50 (Xanthine dehydrogenase/oxidase (Bos taurus)) of the following compound: "CCCCCCCOc1ccc(-c2nc(C)c(C(=O)O)n2O)cc1C#N"
Reply: 110

Task item: Recall the recorded IC50 for "CCCOc1ccc(-c2nc(C)c(C(=O)O)n2O)cc1C#N" with Xanthine dehydrogenase/oxidase (Bos taurus) and state it.
Reply: 130

====

target: Xanthine dehydrogenase/oxidase (Bos taurus); experiment: Inhibition of bovine XO at 10 ug/ml using xanthine as substrate after 120 mins by spectrophotometric analysis; settings: cattle, 2 h
Everything with inhibition (INH) lower than 80% is Condition not met; everything else, including exactly 80%, is Condition met.

Task item: // inclusive: inhibition (INH) at least 80%? input: "CCCCOc1ccc(-c2nc(C)c(C(=O)O)n2O)cc1C#N"
Reply: Condition met

Task item: Dear colleague, could you confirm whether "COn1c(-c2ccc(OC(C)C)c(C#N)c2)nc(C)c1C(=O)O" has inhibition (INH) at or above 80%?
Reply: Condition not met

Task item: hey, is inhibition (INH) for this one >= 80%? Cc1nc(-c2ccc(OCC(C)C)c(C#N)c2)sc1C(=O)O [FEBUXOSTAT]
Reply: Condition met

Task item: // inclusive: inhibition (INH) at least 80%? input: "CCCCCCCOc1ccc(-c2nc(C)c(C(=O)O)n2O)cc1C#N"
Reply: Condition met

Task item: State whether the measured inhibition (INH) reaches 80%, counting equality as reaching it, for "CCCOc1ccc(-c2nc(C)c(C(=O)O)n2O)cc1C#N"
Reply: Condition met

Task item: Record "Cc1ccc(COc2ccc(-c3nc(C)c(C(=O)O)n3O)cc2C#N)cc1" ; criterion: inhibition (INH) no lower than 80%. Met?
Reply: Condition met

Task item: Is reported inhibition (INH) greater than or equal to 80% here: CCC(C)Oc1ccc(-c2nc(C)c(C(=O)O)n2OC)cc1C#N (stereo unspecified)
Reply: Condition met

Task item: Hi, just wondering whether "COn1c(-c2ccc(OCCC(C)C)c(C#N)c2)nc(C)c1C(=O)O" shows inhibition (INH) of 80% or higher.
Reply: Condition not met

Task item: Can "Cc1nc(-c2ccc(OCCC(C)C)c(C#N)c2)n(O)c1C(=O)O" be said to have inhibition (INH) at or above 80%?
Reply: Condition met

Task item: Say whether "COn1c(-c2ccc(OCc3ccc(C)cc3)c(C#N)c2)nc(C)c1C(=O)O" shows inhibition (INH) of 80% or more.
Reply: Condition met
